# Experiment description: cells
# Assay type: functional, cell-based
The source made the active and inactive calls.
Measurement name: EC50

Lookup: Bench note: what EC50 did "CCCCNc1nc(N)nc(-c2cc(Cl)ccc2O)n1" show?
Found: 3.49 µM (active)

Lookup: Consider next the compound "O=C(N/N=C/c1cc(Br)ccc1OC(=O)c1ccc(Br)cc1)c1ccncc1" in the same way.
Found: 121 µM (active)

Lookup: Consider next the compound "COc1cc(C(=O)Oc2ccccc2/C=N/NC(=O)c2ccc(Cl)cc2)cc(OC)c1OC" in the same way.
Found: > 350 µM (not active)

Lookup: Consider next the compound "O=C1CSCN1c1ccc(Cl)cc1" in the same way.
Found: > 350 µM (not active)

====

# Experiment description: inhibitors of firefly luciferase expression or activity, dose response, H4 neuroglioma cells, luminescence (AID 1990)
# Assay type: functional, cell-based
Active and inactive are the calls of the source.
Record form. Attribute: EC50. Fill in for each entry.

Lookup: Bench note: what EC50 did "Cc1ccc2c(c1)-c1c(ssc1=S)C(C)(C)N2C(=O)CSc1nncn1C" show?
Found: 46.1 µM (active)

Lookup: Consider next the compound "Cc1ccc(CN=C(N)Nc2nc(C)cc(C)n2)cc1" in the same way.
Found: > 120 µM (not active)

Lookup: Consider next the compound Cc1ccc(CNC(=O)C2CCN(S(=O)(=O)c3ccc4c(c3)CC(C)N4C(=O)C3CCC3)CC2)o1 (centres undefined) in the same way.
Found: 13 µM (active)

Lookup: Consider next the compound CC(=O)c1ccc(NC2CC(O)C(O)CO2)cc1 (centres undefined) in the same way.
Found: > 120 µM (not active)

====

# Assay system: Polyadenylate-binding protein 1 (Homo sapiens, UniProt P11940)
# Sequence (P11940 whole entry): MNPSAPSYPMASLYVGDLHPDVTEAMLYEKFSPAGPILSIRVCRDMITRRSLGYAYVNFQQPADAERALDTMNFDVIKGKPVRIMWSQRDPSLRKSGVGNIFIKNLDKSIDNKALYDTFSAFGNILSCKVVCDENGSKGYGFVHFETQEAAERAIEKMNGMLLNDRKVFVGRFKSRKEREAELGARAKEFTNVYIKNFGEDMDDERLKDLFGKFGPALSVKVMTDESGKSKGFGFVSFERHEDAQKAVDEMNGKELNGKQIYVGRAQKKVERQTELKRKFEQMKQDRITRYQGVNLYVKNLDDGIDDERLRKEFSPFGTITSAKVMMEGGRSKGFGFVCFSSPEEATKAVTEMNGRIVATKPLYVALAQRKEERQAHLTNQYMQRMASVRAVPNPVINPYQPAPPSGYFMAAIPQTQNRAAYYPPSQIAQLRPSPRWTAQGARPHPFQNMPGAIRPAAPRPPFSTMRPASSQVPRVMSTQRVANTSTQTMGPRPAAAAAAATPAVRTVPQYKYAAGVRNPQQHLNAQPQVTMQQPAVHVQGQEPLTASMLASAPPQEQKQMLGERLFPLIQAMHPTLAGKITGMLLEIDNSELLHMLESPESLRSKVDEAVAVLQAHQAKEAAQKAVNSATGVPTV
# Experiment description: PABP1 MLLE–PAM2 binding inhibitor potency, dose response, biochemical, fluorescence polarization, FITC-PAM2 peptide (AID 602259)
# Type: functional
# Assay setup: read-out: IC50_Mean
Activity calls are given as the source filed them.
Record form. Attribute: IC50. Fill in for each entry.

Lookup: Bench note: what IC50 did "COc1ccc(NC(=O)CSc2ccccc2)cn1" show?
Found: 41.7 µM (inactive)

Lookup: Consider next the compound "CCn1c(C)cc(=S)c2ccccc21" in the same way.
Found: > 66 µM (inactive)

Lookup: Consider next the compound "c1cc(CNc2ccc3c(c2)OCO3)ccn1" in the same way.
Found: 23.5 µM (inactive)

Lookup: Consider next the compound "CC1CCN(c2ccccc2NC(=S)NC(=O)c2ccc(-c3cccc([N+](=O)[O-])c3)o2)CC1" in the same way.
Found: > 66 µM (inactive)

Lookup: Consider next the compound "COc1ccccc1OCC(=O)NCCNC(=O)COc1ccccc1OC" in the same way.
Found: > 66 µM (inactive)

Lookup: Consider next the compound "CN(C)Cc1cc(O)c(CN(C)C)cc1O" in the same way.
Found: 50.7 µM (inactive)

Lookup: Consider next the compound "NC(=O)OCCSc1nnc(-c2cccc(C(N)=S)c2)o1" in the same way.
Found: > 66 µM (inactive)

====

# Experiment description: Luminescence Cell-Based Dose Response HTS to Identify Activators of Luciferase Translation or Activity in H4 […] Cells. [Related pubchem assays: 1829 (Project Summary), 1814 (Primary HTS)]
# Type: functional
Active and inactive are the calls of the source.
Measurement name: EC50

Lookup: Bench note: what EC50 did "Cc1ccc2[nH]c3c(NCc4ccco4)ncnc3c2c1" show?
Found: 20.1 µM (active)

Lookup: Consider next the compound "O=C(/C=C/c1ccco1)NC1=NCCS1" in the same way.
Found: 0.484 µM (active)

Lookup: Consider next the compound CC(=O)c1ccc(S(=O)(=O)N(Cc2cc3cc4c(cc3nc2O)OCCO4)CC2CCCO2)cc1 (stereo unspecified) in the same way.
Found: 6.68 µM (active)

Lookup: Consider next the compound "O=C(/C=C/c1ccco1)NCCc1ccccc1" in the same way.
Found: 14.5 µM (active)

Lookup: Consider next the compound "CC1(C)CN=C(N(Cc2ccccc2)C(=O)Nc2ccccc2)S1" in the same way.
Found: 13.1 µM (active)

Lookup: Consider next the compound "COc1ccc(CN2CCn3ncc(C(=O)Nc4ccccc4)c3C2=O)cc1" in the same way.
Found: 66.6 µM (active)

====

# Experiment description: NIH-3T3 fibroblast cytotoxicity, dose response, cytotoxicity control, cell-based, fluorescence, Alamar Blue, secondary assay (AID 2327);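 note: NIH-3T3 mouse fibroblasts cultured with fluconazole at 8 µg/mL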
# Format: functional
Active and inactive are the calls of the source.
One label from this list, please: 1.0 for active, 0.0 for inactive

Lookup: State the result this test recorded for "C=CC[C@@H]1C=C(C)C[C@H](C)C[C@H](OC)[C@H]2O[C@@](O)(C(=O)C(=O)N3CCCC[C@H]3C(=O)O[C@H](/C(C)=C/[C@@H]3CC[C@@H](O)[C@H](OC)C3)[C@H](C)[C@@H](O)CC1=O)[C@H](C)C[C@@H]2OC" .
Found: 0.0

Lookup: Consider next the compound "COc1ccc(-c2nc(CN3CCN(c4cc(C)nc(C)c4)CC3)c(C)o2)c2ccccc12" in the same way.
Found: 0.0

Lookup: Consider next the compound "CCN(CC)c1ccc(/C=N/NC(=O)c2nnn(-c3nonc3N)c2C(C)C)c(O)c1" in the same way.
Found: 1.0

Lookup: Consider next the compound COc1ccc(-[n+]2c(-c3ccc(Br)cc3)cn3c2SC(C)C3)cc1 (stereo not given) in the same way.
Found: 0.0

====

# Assay system: UniProtKB P49327
# Sequence (P49327 whole entry, the tested form may be a part): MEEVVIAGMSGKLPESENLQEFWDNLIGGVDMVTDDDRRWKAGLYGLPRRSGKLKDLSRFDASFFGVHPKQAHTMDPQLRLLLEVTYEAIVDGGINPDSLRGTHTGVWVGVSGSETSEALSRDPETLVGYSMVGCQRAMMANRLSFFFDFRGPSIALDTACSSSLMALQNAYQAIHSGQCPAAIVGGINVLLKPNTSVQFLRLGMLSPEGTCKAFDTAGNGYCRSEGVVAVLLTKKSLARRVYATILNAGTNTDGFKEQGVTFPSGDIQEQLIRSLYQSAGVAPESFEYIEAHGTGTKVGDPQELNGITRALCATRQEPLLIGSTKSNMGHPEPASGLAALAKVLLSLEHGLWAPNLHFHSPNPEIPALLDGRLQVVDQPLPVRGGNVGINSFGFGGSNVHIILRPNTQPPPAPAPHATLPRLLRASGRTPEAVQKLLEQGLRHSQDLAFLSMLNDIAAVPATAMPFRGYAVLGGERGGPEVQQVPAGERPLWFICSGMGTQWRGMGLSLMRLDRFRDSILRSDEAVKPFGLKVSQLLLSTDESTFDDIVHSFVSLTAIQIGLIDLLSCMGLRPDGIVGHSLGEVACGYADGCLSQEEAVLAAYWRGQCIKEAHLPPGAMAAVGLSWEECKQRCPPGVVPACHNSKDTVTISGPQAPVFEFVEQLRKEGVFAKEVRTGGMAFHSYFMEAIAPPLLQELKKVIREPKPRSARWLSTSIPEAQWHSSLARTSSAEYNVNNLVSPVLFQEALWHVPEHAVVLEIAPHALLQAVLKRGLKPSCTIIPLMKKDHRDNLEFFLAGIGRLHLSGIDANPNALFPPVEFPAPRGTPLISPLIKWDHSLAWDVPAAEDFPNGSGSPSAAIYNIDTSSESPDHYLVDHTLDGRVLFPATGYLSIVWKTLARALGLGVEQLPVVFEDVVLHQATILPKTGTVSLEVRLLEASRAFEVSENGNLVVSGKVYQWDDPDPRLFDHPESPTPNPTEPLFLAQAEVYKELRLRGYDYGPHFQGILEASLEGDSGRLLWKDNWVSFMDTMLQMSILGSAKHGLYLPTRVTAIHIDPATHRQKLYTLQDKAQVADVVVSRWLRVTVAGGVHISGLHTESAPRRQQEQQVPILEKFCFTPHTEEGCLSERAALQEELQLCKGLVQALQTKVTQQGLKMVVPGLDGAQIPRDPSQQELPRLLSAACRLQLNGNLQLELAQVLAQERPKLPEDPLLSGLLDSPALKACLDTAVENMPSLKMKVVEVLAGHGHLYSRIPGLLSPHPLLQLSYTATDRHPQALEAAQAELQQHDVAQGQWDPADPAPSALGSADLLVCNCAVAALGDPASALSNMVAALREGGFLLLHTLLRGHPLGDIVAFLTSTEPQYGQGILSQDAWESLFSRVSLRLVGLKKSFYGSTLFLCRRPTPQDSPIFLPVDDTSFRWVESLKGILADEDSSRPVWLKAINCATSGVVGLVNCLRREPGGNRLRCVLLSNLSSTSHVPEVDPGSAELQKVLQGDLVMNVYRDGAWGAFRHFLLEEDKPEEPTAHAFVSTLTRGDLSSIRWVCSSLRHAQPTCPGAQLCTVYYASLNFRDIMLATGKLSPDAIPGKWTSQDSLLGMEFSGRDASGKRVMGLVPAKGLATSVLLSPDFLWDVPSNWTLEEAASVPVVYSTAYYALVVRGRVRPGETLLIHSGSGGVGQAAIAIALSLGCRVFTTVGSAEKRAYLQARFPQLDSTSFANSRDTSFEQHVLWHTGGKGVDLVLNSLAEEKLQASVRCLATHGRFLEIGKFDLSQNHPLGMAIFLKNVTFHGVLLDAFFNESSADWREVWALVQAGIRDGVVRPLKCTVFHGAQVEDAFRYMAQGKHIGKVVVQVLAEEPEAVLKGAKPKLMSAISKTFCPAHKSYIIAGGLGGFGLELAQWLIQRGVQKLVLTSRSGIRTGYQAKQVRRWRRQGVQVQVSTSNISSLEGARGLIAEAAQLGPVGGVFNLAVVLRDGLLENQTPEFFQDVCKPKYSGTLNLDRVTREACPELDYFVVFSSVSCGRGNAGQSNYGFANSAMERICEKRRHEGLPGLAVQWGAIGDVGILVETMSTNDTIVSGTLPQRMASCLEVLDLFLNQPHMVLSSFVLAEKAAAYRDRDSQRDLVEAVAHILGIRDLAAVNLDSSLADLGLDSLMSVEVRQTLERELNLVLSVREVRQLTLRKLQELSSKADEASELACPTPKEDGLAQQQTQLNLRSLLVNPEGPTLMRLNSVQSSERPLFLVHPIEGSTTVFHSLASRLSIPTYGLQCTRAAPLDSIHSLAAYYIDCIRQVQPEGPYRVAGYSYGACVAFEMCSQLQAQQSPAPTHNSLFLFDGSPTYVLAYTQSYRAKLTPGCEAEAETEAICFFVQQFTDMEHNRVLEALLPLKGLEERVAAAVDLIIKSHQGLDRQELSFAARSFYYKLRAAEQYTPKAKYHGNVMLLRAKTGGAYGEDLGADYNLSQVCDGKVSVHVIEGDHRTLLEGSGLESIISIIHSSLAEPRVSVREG
# Experiment description: FAS thioesterase domain inhibitors, dose response, biochemical, endpoint fluorescence intensity, uHTS hits (AID 624327);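 note: fluorescence from hydrolysis of an O-methyl fluorescein acyl ester substrate by the enzyme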
# Format: functional
The source made the active and inactive calls.
Measurement name: IC50

Lookup: Bench note: what IC50 did "Cc1c(Cl)c([N+](=O)[O-])nn1CCCC(=O)Nc1cccc(Cl)c1" show?
Found: 17.6 µM (active)

Lookup: Consider next the compound "O=C(Cn1c(=O)c2sccc2n(Cc2ccc([N+](=O)[O-])cc2)c1=O)NCCc1ccccc1" in the same way.
Found: 5.6 µM (active)

Lookup: Consider next the compound "O=[N+]([O-])c1ccc(S(=O)(=O)NN=Cc2ccc(Cl)c(Cl)c2)cc1" in the same way.
Found: 1.52 µM (active)

Lookup: Consider next the compound "Cc1nc2ccc(NC(=O)c3cc([N+](=O)[O-])cc([N+](=O)[O-])c3Cl)cc2s1" in the same way.
Found: 2.23 µM (active)

Lookup: Consider next the compound "Cc1ccc([N+](=O)[O-])cc1N=C(S)NCCc1ccccc1" in the same way.
Found: 12.1 µM (active)

Lookup: Consider next the compound "CC(C)NC(=O)N(C)C[C@H]1Oc2c(NC(=O)Nc3ccc(C(F)(F)F)cc3)cccc2C(=O)N([C@H](C)CO)C[C@@H]1C" in the same way.
Found: 0.842 µM (active)

Lookup: Consider next the compound "Cc1ccccc1CS(=O)(=O)c1nnc([C@H](CC(C)C)NC(=O)OC(C)(C)C)o1" in the same way.
Found: 12.3 µM (active)

Lookup: Consider next the compound "O=c1[nH]c2cc([N+](=O)[O-])c([N+](=O)[O-])cc2[nH]c1=O" in the same way.
Found: 8.63 µM (active)

====

# Assay system: Hepatocyte nuclear factor 4-alpha (Homo sapiens, UniProt P41235);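 note: biochemical luminescence-based dose-response counterscreen measuring inhibition of HNF4 dimerization, run alongside a screen for blockers of ABHD5–perilipin-5 interaction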;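 note: split luciferase complementation of HNF4 fusion proteins in cell lysate measuring dimerization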
# Sequence (P41235 whole entry): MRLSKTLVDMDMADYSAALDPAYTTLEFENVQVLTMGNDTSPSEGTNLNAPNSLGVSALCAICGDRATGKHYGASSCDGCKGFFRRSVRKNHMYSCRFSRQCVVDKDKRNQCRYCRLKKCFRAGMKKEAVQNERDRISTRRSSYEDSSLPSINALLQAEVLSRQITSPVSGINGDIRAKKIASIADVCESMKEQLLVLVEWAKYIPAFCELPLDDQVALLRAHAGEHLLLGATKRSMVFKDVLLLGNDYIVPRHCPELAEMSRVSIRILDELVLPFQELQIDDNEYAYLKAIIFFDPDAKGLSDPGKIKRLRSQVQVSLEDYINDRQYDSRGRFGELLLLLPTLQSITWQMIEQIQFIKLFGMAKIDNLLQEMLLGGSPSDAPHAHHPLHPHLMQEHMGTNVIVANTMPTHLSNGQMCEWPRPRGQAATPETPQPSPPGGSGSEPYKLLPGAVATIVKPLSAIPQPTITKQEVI
# Assay type: functional, cell-based
The source made the active and inactive calls.
One label from this list, please: yes for active, no for inactive

Lookup: State the result this test recorded for "CCOC(=O)c1c(NC(=O)/C=C/C(=O)O)sc(C)c1-c1ccc(C(C)(C)C)cc1" .
Found: no

Lookup: Consider next the molecule "O=C(/C(=C/c1ccccc1)n1cncn1)c1ccc(Cl)cc1Cl" in the same way.
Found: yes

Lookup: Consider next the molecule CC(C)(C)NC(=O)C(c1ccncc1)n1c(=O)c(-c2ccco2)nc2ccccc21 (centres undefined) in the same way.
Found: yes

Lookup: Consider next the molecule O=c1c(-c2ccco2)nc2ccccc2n1C(CCc1ccccc1)c1nc2ccccc2[nH]1 (centres undefined) in the same way.
Found: yes
